Where do these numbers come from? They come from paper PMC2582146.

Biological target: CAL PDZ domain (UniProt Q9HD26-2 278-362)
Assay: fluorescence polarisation
pKi: −log10 of the molar value.
READOUT_NAME: pKi

// solved cases for pKi follow
CYPKQMPLSQV [C-FRZ8_(10)]    4.33
CHRTCYLVTQL [C-AIC3A10]    4.37
CGNDPDRGTSI [C-GluRδ2_(10)]    3.25
CYHKQVSLSHV [C-FRZ5_(10)]    3.35
CKKMPSIESDV [C-NR2A10]    2.71
CTEEEVQDTRL [C-CFTR10]    3.16

[I] CALDTSHGTSI [C-GluRδ1_(10)]
[II] CANGLMQTSKL [C-SSR5_(10)]
q: When their pKi values are compared, which is larger, I or II ? Use the label to indicate which entry you chose.
a: II
(II: 4.42, I: 3.06)
